# credit: patent US20240336572A1

biological target: AMPK 111 (Homo sapiens, UniProt Q13131+Q9Y478); construct: open reading frames encoding the full-length α1, β1 and δ1 subunits of human AMPK; made in house; host or cells: E. coli BL21-CodonPlus (DE3)-RIPL, pET-14b; experiment: Biochemical profiling of AMPK activators by AMPK111 (HTRF/TR-FRET assay, SAMS peptide, PP2A dephosphorylation protection); conditions: phosphorylated AMPK 111; maximal activation
Sequence (Q13131 whole entry): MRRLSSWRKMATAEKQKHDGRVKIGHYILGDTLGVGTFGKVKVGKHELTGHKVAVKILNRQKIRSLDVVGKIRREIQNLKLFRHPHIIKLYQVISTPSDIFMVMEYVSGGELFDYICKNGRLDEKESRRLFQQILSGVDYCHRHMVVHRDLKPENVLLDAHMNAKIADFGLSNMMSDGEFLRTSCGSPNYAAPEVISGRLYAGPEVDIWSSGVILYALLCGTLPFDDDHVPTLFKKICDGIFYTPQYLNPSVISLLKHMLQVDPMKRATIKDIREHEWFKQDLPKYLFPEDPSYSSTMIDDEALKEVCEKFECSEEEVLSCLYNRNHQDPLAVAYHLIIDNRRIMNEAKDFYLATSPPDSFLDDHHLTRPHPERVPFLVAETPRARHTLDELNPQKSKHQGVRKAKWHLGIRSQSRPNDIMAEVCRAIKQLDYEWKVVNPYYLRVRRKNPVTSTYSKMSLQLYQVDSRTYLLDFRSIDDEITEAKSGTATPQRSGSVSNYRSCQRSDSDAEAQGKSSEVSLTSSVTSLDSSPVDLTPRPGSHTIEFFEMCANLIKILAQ
Sequence (Q9Y478 whole entry): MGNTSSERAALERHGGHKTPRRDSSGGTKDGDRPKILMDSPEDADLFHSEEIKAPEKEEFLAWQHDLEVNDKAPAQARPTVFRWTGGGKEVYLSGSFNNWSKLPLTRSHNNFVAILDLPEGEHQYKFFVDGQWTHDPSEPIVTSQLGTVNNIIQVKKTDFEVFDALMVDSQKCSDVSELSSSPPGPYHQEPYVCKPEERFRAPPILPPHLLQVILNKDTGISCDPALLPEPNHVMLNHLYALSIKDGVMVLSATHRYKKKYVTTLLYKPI
Sequence (P54619 whole entry partner): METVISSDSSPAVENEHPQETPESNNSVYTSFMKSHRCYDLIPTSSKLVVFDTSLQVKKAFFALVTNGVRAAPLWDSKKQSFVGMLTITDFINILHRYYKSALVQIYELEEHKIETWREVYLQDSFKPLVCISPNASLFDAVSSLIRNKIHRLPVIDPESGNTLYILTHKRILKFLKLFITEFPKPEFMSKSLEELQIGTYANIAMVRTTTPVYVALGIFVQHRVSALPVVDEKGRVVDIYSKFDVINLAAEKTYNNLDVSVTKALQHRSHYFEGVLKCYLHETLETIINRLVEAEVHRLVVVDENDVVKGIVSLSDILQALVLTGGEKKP
Would you mind labelling by Emax? At or over 70% is y, under is n.

# example entries with known answers
| smi | assignedCategory |
| --- | --- |
| Cc1ccccc1-c1ccc(-c2cc3c(CCC(=O)O)n[nH]c3cc2Cl)cc1 | n |
| O=C(O)CCc1c[nH]c2cc(Cl)c(-c3ccc(-c4ccccc4O)cc3)cc12 | y |
| O=C(O)CCc1n[nH]c2cc(Cl)c(-c3ccc(-c4cccc(OC(F)F)c4O)cc3)cc12 | y |
| Cc1cccc(O)c1-c1ccc(-c2cc3c(CCC(=O)O)n[nH]c3cc2Cl)cc1 | y |
| COc1c(F)ccc(-c2ccc(-c3cc4c(CCC(=O)O)n[nH]c4cc3Cl)cc2)c1O | y |

Exercise: Decide: Emax of "O=C(O)CCc1n[nH]c2cc(Cl)c(-c3ccc(-c4ccc5c(c4)CS(=O)(=O)C5)cc3)cc12" >= 70%?
Key: n

Exercise: Now try "CNC(=O)c1ccc(-c2ccc(-c3cc4c(CCC(=O)O)n[nH]c4cc3Cl)cc2)cc1" .
Key: n

Exercise: Now try "O=C(O)CCc1n[nH]c2cc(F)c(-c3ccc(-c4ccccc4O)cc3)cc12" .
Key: n

---

Exercise: for every item that follows, state its recorded Emax.
molecular target: AMPK 111 (Homo sapiens, UniProt Q13131+Q9Y478); construct: open reading frames encoding the full-length α1, β1 and δ1 subunits of human AMPK; made in house; host or cells: E. coli BL21-CodonPlus (DE3)-RIPL, pET-14b; assay: Biochemical profiling of AMPK activators by AMPK111 (HTRF/TR-FRET assay, SAMS peptide, PP2A dephosphorylation protection); conditions: phosphorylated AMPK 111; maximal activation

| compound | Emax |
| --- | --- |
| COc1ccc(C)c(-c2ccc(-c3cc4c(CCC(=O)O)n[nH]c4cc3Cl)cc2)c1O [Example 62] | 72% |
| Cc1ccc(-c2ccc(-c3cc4c(CCC(=O)O)n[nH]c4cc3Cl)cc2)c(O)c1 [Example 34] | 68% |

Kindly consider the entry below.
Exercise: Observed Emax on AMPK 111 (Homo sapiens, UniProt Q13131+Q9Y478) for CCOc1cccc(-c2ccc(-c3cc4c(CCC(=O)O)n[nH]c4cc3Cl)cc2)c1O [Example 25] , please.
Key: 71%
